Data origin: PubChem BioAssay (NCI)

run_description: NCI Yeast Anticancer Drug Screen. Data for the sgs1 mgt1 strain (AID 161);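 further: 0% = growth of cultures given vehicle only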
study_conditions: S. cerevisiae sgs1 mgt1 strain, at 50.0 µM, stronger effect = higher value
The panel holds about 79,000 compounds, 15% with a hit somewhere; the sample as a whole holds those more often.

{"molecule": "CP1CC(Br)C(Br)C1 (stereo not drawn)", "result_unit": "%", "growth inhibition": 19.9}
{"molecule": "O=C(Cc1c[nH]c2ccccc12)N/N=C\\c1ccc(N(CCCl)CCCl)cc1", "result_unit": "%", "growth inhibition": 11.8}
{"molecule": "Nc1ncnc(N)n1", "result_unit": "%", "growth inhibition": 13.3}
{"molecule": "CN(C)P(=O)(N(C)C)N(C)C", "result_unit": "%", "growth inhibition": -7.05}
{"molecule": "CC(=O)C1(c2ccccc2)CCCN(C)CC1 (stereo not drawn)", "result_unit": "%", "growth inhibition": 8.2}
{"molecule": "CNC(=O)C(CC(C)[N+](C)(C)C)(c1ccccc1)c1ccccc1 (stereo not drawn)", "result_unit": "%", "growth inhibition": 14.5}
{"molecule": "O=C(O)C1C2C=Cc3ccccc3C21 (stereo not drawn)", "result_unit": "%", "growth inhibition": -11.3}
{"molecule": "Cc1cc(NN=O)nc(C)n1", "result_unit": "%", "growth inhibition": -1.35}
{"molecule": "C/C=C1/C[N+]2([O-])CC[C@@]34c5ccc(OC)cc5N(C)[C@H]3C2CC1C4C(=O)OC (stereo partly drawn)", "result_unit": "%", "growth inhibition": -3.1}
{"molecule": "CC1=CC=NC(Cl)(Cl)N1", "result_unit": "%", "growth inhibition": -15.7}
{"molecule": "Cc1cnc2ncn(Cc3c[nH]c(=O)[nH]c3=O)c(=O)c2c1", "result_unit": "%", "growth inhibition": -8}
{"molecule": "CNN", "result_unit": "%", "growth inhibition": 34.1}
{"molecule": "CCCCCCCNC(=O)CBr", "result_unit": "%", "growth inhibition": 33.4}
{"molecule": "COc1ccc2c(c1)C(=O)C(N)C2 (stereo not drawn)", "result_unit": "%", "growth inhibition": 0.5}
{"molecule": "COc1c(Br)cc(/C=C/[N+](=O)[O-])cc1Br", "result_unit": "%", "growth inhibition": 89.8}
{"molecule": "CCCCCCNC(=O)CCl", "result_unit": "%", "growth inhibition": 15.3}
{"molecule": "BrCCCCCCBr", "result_unit": "%", "growth inhibition": 3.25}
{"molecule": "O=C1C(C(Nc2ccccc2)c2ccccc2)=C([O-])c2ccccc21.O=C1C(C(Nc2ccccc2)c2ccccc2)=C([O-])c2ccccc21.[Ni+2] (stereo not drawn)", "result_unit": "%", "growth inhibition": 36.6}
{"molecule": "CC1(C)C2CC[C@@]1(C)C(=O)C2Br (stereo partly drawn)", "result_unit": "%", "growth inhibition": -1.6}
{"molecule": "O=C(O)CN1CCN(CC(=O)O)CC(=O)[O][Hg][O]C(=O)C1", "result_unit": "%", "growth inhibition": 99.5}
{"molecule": "O=Cc1ccccc1O.O=Cc1ccccc1O.[O]=[Mo]=[O]", "result_unit": "%", "growth inhibition": 8.2}
{"molecule": "C1CN2CN3CCN(CN1C3)C2", "result_unit": "%", "growth inhibition": 20.9}
{"molecule": "NS(=O)(=O)c1ccc([As](=O)(O)O)cc1", "result_unit": "%", "growth inhibition": 5}
{"molecule": "CC1(C)CCC(C)(C)c2c1ccc(O)c2Cc1c(O)ccc2c1C(C)(C)CCC2(C)C", "result_unit": "%", "growth inhibition": -39}
{"molecule": "CCCCCCC(=O)[O][Hg][c]1ccccc1", "result_unit": "%", "growth inhibition": 99.7}
{"molecule": "CC(C)(C)[Si](C)(C)OC(=O)CCCc1ccc(N(CCCl)CCCl)cc1", "result_unit": "%", "growth inhibition": -10.2}
{"molecule": "COc1ccc(CC2C(=O)NC(C)C(=O)N(C)C3C(=O)N(C)C(Cc4ccc(O)c(c4)Oc4ccc(cc4)C3O)C(=O)NC(C)C(=O)NC(C)C(=O)N2C)cc1 (stereo not drawn) (tested in a mixture with another compound)", "result_unit": "%", "growth inhibition": 86.3}
{"molecule": "c1ccc2c(c1)ccc1[s+]cccc12", "result_unit": "%", "growth inhibition": 35.7}
{"molecule": "CN1C(=O)C(=Cc2cccc([N+](=O)[O-])c2)C(=O)N(C)C1=O", "result_unit": "%", "growth inhibition": 2.15}
{"molecule": "COc1ccc(/C=C(\\C)[N+](=O)[O-])cc1OC", "result_unit": "%", "growth inhibition": 91}
{"molecule": "O=[N+]([O-])c1cc(-c2ccccc2)ccc1O", "result_unit": "%", "growth inhibition": 97.4}
{"molecule": "CCC(C)C1(CCc2ccccc2)C(=O)NC(=O)NC1=O (stereo not drawn)", "result_unit": "%", "growth inhibition": 3.55}
{"molecule": "COC1C=CC23c4cc5c(cc4COC2(O)CN(C)C3C1)OCO5 (stereo not drawn)", "result_unit": "%", "growth inhibition": -56.5}
{"molecule": "CCCCC(Br)C(=O)OCC (stereo not drawn)", "result_unit": "%", "growth inhibition": -26.5}
{"molecule": "CO/N=C1\\CC(C)N2C(=O)C(C(C)C)NC(=O)C(NC(=O)c3c4nc5c(C(=O)NC6C(=O)NC(C(C)C)C(=O)N7C(C)CC(O)C7C(=O)N(C)CC(=O)N(C)C(C(C)C)C(=O)OC6C)ccc(C)c5oc-4c(C)c(=O)c3N)C(CO)OC(=O)C(C)N(C)C(=O)CN(C)C(=O)C12 (stereo not drawn)", "result_unit": "%", "growth inhibition": 9.35}
{"molecule": "Nc1nc(N)c2cnnn2n1", "result_unit": "%", "growth inhibition": 17.3}
{"molecule": "CN(CC(N)=O)C(=O)N(CCCl)N=O", "result_unit": "%", "growth inhibition": -11.5}
{"molecule": "CN(C)c1ccc(N=Nc2cccc(C(=O)[O-])c2)cc1.CN(C)c1ccc(N=Nc2cccc(C(=O)[O-])c2)cc1.NC1CCCCC1N.[Pt+4]", "result_unit": "%", "growth inhibition": -18.4}
{"molecule": "[N-]=[N+]=C1CNC(=O)NC1=O", "result_unit": "%", "growth inhibition": -10.6}
{"molecule": "Sc1ccccc1.[Ag]", "result_unit": "%", "growth inhibition": 99}
{"molecule": "COC(=O)C1=C(C(=O)OC)C2(C)OC1c1ccccc12 (stereo not drawn)", "result_unit": "%", "growth inhibition": 98}
{"molecule": "O=S(O)O.O=S(O)O.[Co].[NH2-].[NH2-].[NH2-].[NH2-]", "result_unit": "%", "growth inhibition": 2.5}
{"molecule": "COc1cccc(NC2=NCCO2)c1", "result_unit": "%", "growth inhibition": -5.95}
{"molecule": "NC(=O)CCCc1ccc([As]=O)cc1 (stereo not drawn)", "result_unit": "%", "growth inhibition": -8.85}
{"molecule": "[O-][N+]12CCCCC1C1CC(C2)C2CCCC(c3ccccc3)N2C1 (stereo not drawn)", "result_unit": "%", "growth inhibition": -22.8}
{"molecule": "CC(=O)OC1CCC2C3CCC4C(F)C(=O)C(F)(F)CC4(C)C3CCC12C (stereo not drawn)", "result_unit": "%", "growth inhibition": 63.5}
{"molecule": "CCOS(=O)(=O)OCC", "result_unit": "%", "growth inhibition": 4.25}
{"molecule": "N#Cc1ccncc1", "result_unit": "%", "growth inhibition": 23.9}

###

run_description: NCI Yeast Anticancer Drug Screen. Data for the bub3 strain (AID 167)
study_conditions: S. cerevisiae bub3 mutant strain, at 50.0 µM, stronger effect = higher value
This is part of a sample that, as a whole, favours compounds with a hit. Of some 79,000 tested, about 15% had one in any assay. The source made the active and inactive calls. No stated cut-off is given here; in the data, active means growth inhibition above about 70%; inactive means the rest.
Reported growth inhibition by item:

{"compound": "[O-][n+]1c2ccccc2nn1-c1ccc(N(CCCl)CCCl)cc1", "growth inhibition": "-16.9% (inactive)"}
{"compound": "NC(CCCCCP(=O)(O)O)C(=O)O (stereo not given)", "growth inhibition": "-17.4% (inactive)"}
{"compound": "CN(Cc1ccccc1)C1=NCCN1", "growth inhibition": "15.1% (inactive)"}
{"compound": "CC1(C)CCC(C)(C)c2c1ccc(O)c2Cc1c(O)ccc2c1C(C)(C)CCC2(C)C", "growth inhibition": "-41.2% (inactive)"}
{"compound": "Brc1ccc(NP(Br)(c2ccccc2)(c2ccccc2)c2ccccc2)cc1", "growth inhibition": "11.9% (inactive)"}
{"compound": "Cc1nnc2n1-c1ccc(Cl)cc1C(c1ccccc1)=[N+]([O-])C2", "growth inhibition": "7.45% (inactive)"}
{"compound": "CCC[CH2][Sn]1([CH2]CCC)[O]CC(CN2CCCCC2)[O]1 (stereo not given)", "growth inhibition": "88% (active)"}
{"compound": "CCCNC1=C(C)C(=O)C2=C(C1=O)[C@H](COC(N)=O)[C@]1(OC)[C@@H]3N[C@@H]3CN21", "growth inhibition": "9.7% (inactive)"}
{"compound": "Fc1ccc(C2(N3CCC4(CC3)OCCO4)CCCCC2)cc1", "growth inhibition": "0.1% (inactive)"}
{"compound": "Cc1c2ccncc2c(CN(CCCl)CCCl)c2c3ccccc3n(C)c12", "growth inhibition": "82.1% (active)"}
{"compound": "N#Cc1ccccc1Cl", "growth inhibition": "24.2% (inactive)"}
{"compound": "CCOP(=O)(N=Nc1cccnc1)OCC", "growth inhibition": "20.1% (inactive)"}
{"compound": "O=[N+]([O-])c1cccc(/C=C/c2ccc(S(=O)(=O)F)cc2)c1", "growth inhibition": "97.2% (active)"}
{"compound": "CC(=O)[O-].N.N.N.N.[Co+3].[O-][Cl+3]([O-])([O-])[O-].[OH3+]", "growth inhibition": "21.9% (inactive)"}
{"compound": "CC(CC(C)(C)[N-]CC[O-])=NCCO.O=[N+]([O-])O.[Cu+2]", "growth inhibition": "26.2% (inactive)"}
{"compound": "N#C[C@H](OC1OC(COC2OC(CO)C(O)C(O)C2O)C(O)C(O)C1O)c1ccccc1 (stereo not given in full)", "growth inhibition": "-29.1% (inactive)"}
{"compound": "CN(C)P(=S)(N(C)C)N1CCOCC1", "growth inhibition": "-28.3% (inactive)"}
{"compound": "CC1(C)CC(O)CC(C)(C)N1O", "growth inhibition": "20.2% (inactive)"}
{"compound": "c1ccc(-c2cccc(-c3ccccc3)c2)cc1", "growth inhibition": "24.6% (inactive)"}
{"compound": "O=P(O)(Oc1ccccc1)Oc1ccccc1", "growth inhibition": "0.55% (inactive)"}
{"compound": "c1ccc2c(c1)[Se]c1ccccc1[Se]2", "growth inhibition": "23.1% (inactive)"}
{"compound": "NNC(=O)c1ccc(O)cc1", "growth inhibition": "-0.05% (inactive)"}
{"compound": "O=[N+]([O-])c1ccc(CS(=O)(=O)C(Cl)Cl)o1", "growth inhibition": "48.1% (inactive)"}
{"compound": "OCCBr", "growth inhibition": "-0.7% (inactive)"}
{"compound": "CCC1(CC)C(=O)NC(=O)N(C)C1=O", "growth inhibition": "8.25% (inactive)"}
